Target: PI3Kα (Homo sapiens (Human), UniProt P42336)
Sequence (P42336 whole entry): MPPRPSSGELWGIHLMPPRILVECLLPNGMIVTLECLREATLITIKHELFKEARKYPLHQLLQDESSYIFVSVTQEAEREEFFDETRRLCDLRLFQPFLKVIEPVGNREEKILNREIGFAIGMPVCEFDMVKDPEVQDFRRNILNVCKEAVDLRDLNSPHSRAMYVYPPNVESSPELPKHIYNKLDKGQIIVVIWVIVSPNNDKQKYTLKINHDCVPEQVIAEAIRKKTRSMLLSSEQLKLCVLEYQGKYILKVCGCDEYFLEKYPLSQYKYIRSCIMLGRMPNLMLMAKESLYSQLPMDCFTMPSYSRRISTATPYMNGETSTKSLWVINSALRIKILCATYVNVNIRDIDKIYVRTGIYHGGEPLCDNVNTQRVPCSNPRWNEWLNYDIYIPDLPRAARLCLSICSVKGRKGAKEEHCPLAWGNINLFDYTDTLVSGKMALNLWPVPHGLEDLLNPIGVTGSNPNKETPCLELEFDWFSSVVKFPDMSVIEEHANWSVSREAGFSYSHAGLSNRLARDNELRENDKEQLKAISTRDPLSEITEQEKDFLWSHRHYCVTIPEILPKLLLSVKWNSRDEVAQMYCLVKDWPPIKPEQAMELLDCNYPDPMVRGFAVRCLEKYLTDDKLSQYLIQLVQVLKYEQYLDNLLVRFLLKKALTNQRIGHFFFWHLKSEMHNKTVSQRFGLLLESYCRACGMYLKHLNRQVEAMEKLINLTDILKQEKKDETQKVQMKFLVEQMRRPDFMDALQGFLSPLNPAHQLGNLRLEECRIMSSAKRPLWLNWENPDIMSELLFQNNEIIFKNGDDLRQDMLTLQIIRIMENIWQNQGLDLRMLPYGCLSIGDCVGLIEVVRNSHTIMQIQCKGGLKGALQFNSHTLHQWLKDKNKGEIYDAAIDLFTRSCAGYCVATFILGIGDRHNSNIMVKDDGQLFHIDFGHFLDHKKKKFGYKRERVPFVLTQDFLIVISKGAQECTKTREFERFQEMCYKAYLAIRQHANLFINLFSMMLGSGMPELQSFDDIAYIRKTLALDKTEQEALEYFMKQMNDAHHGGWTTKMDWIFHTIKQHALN
Sequence (P27986 whole entry partner): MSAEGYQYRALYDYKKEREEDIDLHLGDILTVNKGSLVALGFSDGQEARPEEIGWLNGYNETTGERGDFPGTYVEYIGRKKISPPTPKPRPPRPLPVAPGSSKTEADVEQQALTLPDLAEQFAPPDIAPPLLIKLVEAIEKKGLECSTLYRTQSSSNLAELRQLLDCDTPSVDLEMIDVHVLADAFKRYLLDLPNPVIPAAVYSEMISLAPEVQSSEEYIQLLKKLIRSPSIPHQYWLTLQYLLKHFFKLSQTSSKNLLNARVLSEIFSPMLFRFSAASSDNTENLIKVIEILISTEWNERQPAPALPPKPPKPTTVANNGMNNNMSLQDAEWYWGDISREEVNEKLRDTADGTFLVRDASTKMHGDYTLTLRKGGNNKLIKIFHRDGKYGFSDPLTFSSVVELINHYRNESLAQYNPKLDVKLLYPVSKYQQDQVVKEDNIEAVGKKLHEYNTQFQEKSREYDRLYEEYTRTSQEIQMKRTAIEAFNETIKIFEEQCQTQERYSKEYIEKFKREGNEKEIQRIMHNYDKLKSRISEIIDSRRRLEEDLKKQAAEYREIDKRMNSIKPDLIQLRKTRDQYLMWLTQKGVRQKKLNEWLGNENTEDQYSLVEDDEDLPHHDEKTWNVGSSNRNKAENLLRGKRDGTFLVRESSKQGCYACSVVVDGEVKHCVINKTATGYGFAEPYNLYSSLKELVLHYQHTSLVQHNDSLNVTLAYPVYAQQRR
Assay: PI3Kα enzyme activity inhibition IC50 evaluation assay
Type: biochemical
Details: ratio PI3Kα vs PI3Kδ
QUANTITY_KIND: α/δ selectivity

Please review the entries below; each comes with its answer.
Kindly state the measured α/δ selectivity obtained for COc1ncc(-c2nc(N3CCOCC3)nc3c(CN4CCC(C(=O)NCC(F)(F)F)CC4)csc23)cc1NS(C)(=O)=O [Compound 42] with PI3Kα (Homo sapiens (Human), UniProt P42336). 152

Kindly state the measured α/δ selectivity obtained for COc1ncc(-c2nc(N3CCOCC3)nc3c(CN4CCC(N(C)C)CC4)csc23)cc1NS(C)(=O)=O [Compound 43] with PI3Kα (Homo sapiens (Human), UniProt P42336). 105

Kindly state the measured α/δ selectivity obtained for COc1ncc(-c2nc(N3CCOCC3)nc3c(CN4CCN(C(C)C)CC4)c(C)sc23)cc1NS(C)(=O)=O [Compound 91] with PI3Kα (Homo sapiens (Human), UniProt P42336). 60

Kindly state the measured α/δ selectivity obtained for COc1ncc(-c2nc(N3CCOCC3)nc3c(CN4CCN(CC(C)(C)O)CC4)c(C)sc23)cc1NS(C)(=O)=O [Compound 142] with PI3Kα (Homo sapiens (Human), UniProt P42336). 60

Kindly state the measured α/δ selectivity obtained for COc1ncc(-c2nc(N3CCOCC3)nc3c(CN4CC(N(C)C)C4)c(C)sc23)cc1NS(C)(=O)=O [Compound 121] with PI3Kα (Homo sapiens (Human), UniProt P42336). 192

(a) COc1ncc(-c2nc(N3CCOCC3)nc3c(CN4CCN(C5CCOCC5)CC4)csc23)cc1NS(C)(=O)=O [Compound 33]
(b) Cc1sc2c(-c3cccc4[nH]ccc34)nc(N3CCOCC3)nc2c1CN1CCN(C(=O)CO)CC1 [Compound 8]
// pick larger α/δ selectivity from pair: a vs b Respond with the label that goes with your answer. b
(b: 90, a: 51)
